Cited source for all entries: ChEMBL document CHEMBL3044896

- Test system: Escherichia coli
- Test Name: Antibacterial activity against Escherichia coli ATCC 2343 at 100 ug/ml after 18 to 24 hr by agar well diffusion method
- Format: functional
- Settings: read-out: IZ
Property: zone of inhibition at 100 µg/mL (mm)
Answer with a number only, understood to be in mm.

Consider the compound shown here: COC(=O)/C(=C/c1ccc(F)cc1)Cn1nnn(-c2ccccc2)c1=O What is its recorded zone of inhibition at 100 µg/mL?
4

Consider the compound shown here: COC(=O)/C(=C/c1ccc(F)cc1)Cn1nnn(-c2ccc(OC)cc2)c1=O What is its recorded zone of inhibition at 100 µg/mL?
18

Consider the compound shown here: COc1ccc(-n2nnn(C/C(C#N)=C/c3ccc(OC)c(OC)c3)c2=O)cc1 What is its recorded zone of inhibition at 100 µg/mL?
7

Consider the compound shown here: COc1ccc(/C=C(\C#N)Cn2nnn(-c3ccc(C(F)(F)F)cc3)c2=O)cc1OC What is its recorded zone of inhibition at 100 µg/mL?
7

Consider the compound shown here: COc1ccc(/C=C(\C#N)Cn2nnn(-c3ccc(OC)cc3)c2=O)cc1 What is its recorded zone of inhibition at 100 µg/mL?
14

Consider the compound shown here: COC(=O)/C(=C/c1ccc(OC)c(OC)c1)Cn1nnn(-c2ccc(OC)cc2)c1=O What is its recorded zone of inhibition at 100 µg/mL?
9

Consider the compound shown here: COC(=O)/C(=C/c1ccc(Cl)cc1)Cn1nnn(-c2ccc(OC)cc2)c1=O What is its recorded zone of inhibition at 100 µg/mL?
5

Consider the compound shown here: Cc1ccc(/C=C(\C#N)Cn2nnn(-c3ccc(C(F)(F)F)cc3)c2=O)cc1 What is its recorded zone of inhibition at 100 µg/mL?
3

Consider the compound shown here: N#C/C(=C\c1ccccc1)Cn1nnn(-c2ccc(C(F)(F)F)cc2)c1=O What is its recorded zone of inhibition at 100 µg/mL?
9

###

- Test system: Candida albicans
- Test Name: Antifungal activity against Candida albicans at 100 ug/ml after 48 hr by agar well diffusion method
- Format: functional
- Settings: read-out: IZ
Property: zone of inhibition at 100 µg/mL (mm)
Answer with a number only, understood to be in mm.

Consider the compound shown here: COC(=O)/C(=C/c1ccc([N+](=O)[O-])cc1)Cn1nnn(-c2ccc(C(F)(F)F)cc2)c1=O What is its recorded zone of inhibition at 100 µg/mL?
12

Consider the compound shown here: N#C/C(=C\c1ccccc1)Cn1nnn(-c2ccc(C(F)(F)F)cc2)c1=O What is its recorded zone of inhibition at 100 µg/mL?
15

Consider the compound shown here: CCOC(=O)/C(=C/c1ccc(Cl)cc1)Cn1nnn(-c2ccccc2)c1=O What is its recorded zone of inhibition at 100 µg/mL?
18

Consider the compound shown here: COc1ccc(-n2nnn(C/C(C#N)=C/c3ccccc3)c2=O)cc1 What is its recorded zone of inhibition at 100 µg/mL?
9

Consider the compound shown here: COc1ccc(/C=C(\C#N)Cn2nnn(-c3ccc(OC)cc3)c2=O)cc1 What is its recorded zone of inhibition at 100 µg/mL?
16

Consider the compound shown here: Cc1ccc(/C=C(\C#N)Cn2nnn(-c3ccccc3)c2=O)cc1 What is its recorded zone of inhibition at 100 µg/mL?
7

Consider the compound shown here: CCOC(=O)/C(=C/c1ccc(Cl)cc1)Cn1nnn(-c2ccc(OC)cc2)c1=O What is its recorded zone of inhibition at 100 µg/mL?
12

Consider the compound shown here: COc1ccc(/C=C(\C#N)Cn2nnn(-c3ccc(C(F)(F)F)cc3)c2=O)cc1 What is its recorded zone of inhibition at 100 µg/mL?
16

Consider the compound shown here: COc1ccc(/C=C(\C#N)Cn2nnn(-c3ccc(C(F)(F)F)cc3)c2=O)cc1OC What is its recorded zone of inhibition at 100 µg/mL?
16
